B1: TPR 5TU (parent)
chain: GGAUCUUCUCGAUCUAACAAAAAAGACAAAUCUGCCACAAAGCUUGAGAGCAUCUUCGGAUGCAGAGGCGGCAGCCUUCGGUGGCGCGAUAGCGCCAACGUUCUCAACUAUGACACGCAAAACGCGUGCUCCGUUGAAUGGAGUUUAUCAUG

variants of: B1; assay: polymerase ribozyme fitness, log enrichment relative to wild type (log ratio); higher = more active; in vitro selection for triplet polymerase activity
This sample holds only a part of the variants without activity.
Kind request: treat -3 as inclusive, so polymerase ribozyme fitness (log ratio) at -3 or higher is met, anything lower is not met.

Example entries and their recorded answers appear below.
| VARIANT DESIGNATION | ASSIGNED CLASS |
| --- | --- |
| A30C U33C G67A C93G A119U | not met |
| U4A C38A U53G C85U G94C A107G A137C G140A | not met |
| A60C A97U | met |

Ask: Tell me whether polymerase ribozyme fitness (log ratio) is at least -3 here: C87A G140C
Reply: not met
